- MEASUREMENT TARGET: Peroxisome proliferator-activated receptor gamma/Nuclear receptor coactivator 1 (Homo sapiens, UniProt P37231)
- ASSAY METHOD TEXT: TR-FRET dose response biochemical High Throughput Screening assay for agonists of the steroid receptor coactivator 1 (SRC-1) recruitment by the peroxisome proliferator-activated receptor gamma (PPAR gamma): non-selective agonists. [Related pubchem assays (depositor defined):AID1300, AID1808, AID504735, AID631]
- Assay type: protein assay
Active and inactive are the calls of the source.
Use one of these outcomes when replying: TRUE (active), FALSE (inactive)

>>> assigned_label("Fc1ccc(-c2nnsc2Sc2ccccn2)cc1")
"TRUE"

Problem: Each compound tested received a call. Report the one for `NC(=O)CSc1ncnc2c1oc1ccccc12` .
Solution: FALSE

Problem: Would you mind telling me which call this test gave `CCSc1nnc(-c2ccccc2SC)o1` ?
Solution: FALSE

Problem: GET /call?item= `CC(C)OC(=O)CNc1nnc(S)nc1O` returns the recorded outcome of this test.
Solution: TRUE

* * *

- MEASUREMENT TARGET: UniProtKB P08684
- Sequence (P08684 whole entry): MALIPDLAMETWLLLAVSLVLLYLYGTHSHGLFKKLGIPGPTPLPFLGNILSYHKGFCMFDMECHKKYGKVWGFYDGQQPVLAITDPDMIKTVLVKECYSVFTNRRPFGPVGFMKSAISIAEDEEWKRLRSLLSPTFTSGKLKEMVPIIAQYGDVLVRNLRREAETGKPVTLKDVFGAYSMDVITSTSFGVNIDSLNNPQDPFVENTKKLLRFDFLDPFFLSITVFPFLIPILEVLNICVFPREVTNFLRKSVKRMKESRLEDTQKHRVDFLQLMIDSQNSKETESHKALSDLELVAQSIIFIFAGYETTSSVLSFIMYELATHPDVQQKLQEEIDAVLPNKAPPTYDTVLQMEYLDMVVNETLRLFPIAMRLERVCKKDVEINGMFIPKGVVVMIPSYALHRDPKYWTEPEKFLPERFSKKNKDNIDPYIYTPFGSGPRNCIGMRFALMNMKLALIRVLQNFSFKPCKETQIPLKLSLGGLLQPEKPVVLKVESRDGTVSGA
AC50 values, listed per item

Completed entries (count: 4):
>>> observed_result("Cc1cc(/C=C2\\SC(=S)NC2=O)c(C)n1C")
"25.1 µM (inconclusive)"
>>> observed_result("Cc1cccc(NC2(C(F)(F)F)N=C(c3ccccc3)NC2=O)n1 (configuration not stated)")
"15.8 µM (inconclusive)"
>>> observed_result("O=C(O)CCC/C=C\\C[C@@H]1CO[C@H](C(F)(F)F)O[C@@H]1c1ccccc1O")
"15.8 µM (inconclusive)"
>>> observed_result("CC(C)CN1CCCC2(CCN(C(=O)c3cccc(F)c3)CC2)C1")
"25.1 µM (inconclusive)"

Problem: Look up UniProtKB P08684 data: AC50 of `O=C(c1csnn1)N1CCC2(CC1)CCN(c1ccncc1)CC2` , then report it.
Solution: 15.8 µM (inconclusive)

Problem: Fill in AC50 for `O=c1c(-c2ccc(Cl)cc2)nc2cnc(N3CCNCC3)nc2n1CCc1ccccc1` tested with UniProtKB P08684.
Solution: 31.6 µM (inconclusive)

Problem: # lookup: UniProtKB P08684 AC50, key = `CCNc1ncc2nc(-c3ccc(OC)cc3)c(=O)n(CCOC)c2n1`
Solution: 15.8 µM (inconclusive)

Problem: Quote AC50 with test system UniProtKB P08684 for `COc1cc(CN2CCN(C(=O)COc3ccccc3)CC2)cc(OC)c1OC`
Solution: 22.4 µM (inconclusive)

Problem: Check UniProtKB P08684 data and give AC50 for `c1ccc(CNc2cc(-c3ccoc3)ncn2)cc1` .
Solution: 12.6 µM (inconclusive)

* * *

Reported IC50 values are given for each entry in this list.
- MEASUREMENT TARGET: Rac GTPase-activating protein 1 (Homo sapiens)
- Sequence (Q9H0H5 whole entry): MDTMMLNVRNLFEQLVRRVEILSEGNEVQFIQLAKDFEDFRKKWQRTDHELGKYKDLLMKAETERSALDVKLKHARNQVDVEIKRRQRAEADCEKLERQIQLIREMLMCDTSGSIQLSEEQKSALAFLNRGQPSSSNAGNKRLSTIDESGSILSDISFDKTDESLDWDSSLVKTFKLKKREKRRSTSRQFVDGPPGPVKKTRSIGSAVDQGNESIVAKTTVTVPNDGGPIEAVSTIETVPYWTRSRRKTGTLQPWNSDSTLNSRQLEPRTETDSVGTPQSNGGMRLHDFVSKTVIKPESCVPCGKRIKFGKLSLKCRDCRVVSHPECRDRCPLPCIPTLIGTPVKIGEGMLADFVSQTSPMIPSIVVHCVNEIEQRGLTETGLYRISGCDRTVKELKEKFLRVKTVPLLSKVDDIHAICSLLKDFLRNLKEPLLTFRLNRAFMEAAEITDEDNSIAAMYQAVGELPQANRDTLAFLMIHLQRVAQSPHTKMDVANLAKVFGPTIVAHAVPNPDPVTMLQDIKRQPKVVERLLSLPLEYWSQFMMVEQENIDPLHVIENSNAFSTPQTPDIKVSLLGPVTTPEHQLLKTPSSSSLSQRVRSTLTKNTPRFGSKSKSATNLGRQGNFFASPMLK
- ASSAY METHOD TEXT: blockers of MgcRacGAP-driven Rac1 GTP hydrolysis – biochemical, ADP Hunter fluorescence, primary and confirmatory, confirmation (AID 624330)
- Format: functional
Calls of active or inactive are those of the source.

Examples from the recorded data:
>>> observed_result("O=C1NC(=S)S/C1=C\\C=C\\c1ccc([N+](=O)[O-])o1")
"37.7 µM (active)"
>>> observed_result("COc1cc(C(=O)N/N=C/c2ccc(OC)c(CN3CCN(c4ccc(F)cc4)CC3)c2)ccc1O")
"83.3 µM (active)"
>>> observed_result("COc1ccc(NC2CCCN(C(=O)C3=NNC(=O)CC3)C2)cc1 (stereo not given)")
"120 µM (active)"

Problem: Dear colleague, please send me the reported IC50 for `COc1ccccc1C(=O)N1CCN(Cc2cccnc2)CC1` when you can.
Solution: 101 µM (active)

Problem: Please give measured IC50 of the following entry: `COCCCNC(=O)/C(C#N)=C/c1c(N2CCN(c3ccc(OC)cc3)CC2)nc2c(C)cccn2c1=O`
Solution: 114 µM (active)

* * *

- MEASUREMENT TARGET: Voltage-gated inwardly rectifying potassium channel KCNH2 (Homo sapiens);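 also: confirmatory quantitative high-throughput screen measuring inhibition of hERG channel activity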
- SETTINGS: Potency
READOUT KIND: AC50

Problem: Write down AC50 measured for item `CC1CCN(CC[C@H]2CCCN2S(=O)(=O)c2cccc(O)c2)CC1`
Solution: 22.4 µM (inconclusive)

Problem: Check the records and state AC50 for `NCCc1ccc(S(=O)(=O)F)cc1`
Solution: 0.251 µM (inconclusive)

Problem: Given the molecule `COc1[nH]c2ccc(F)cc2c1C(=O)OCC1CCN(CCNS(C)(=O)=O)CC1.NS(=O)(=O)O` , write its reported AC50.
Solution: 35.5 µM (inconclusive)

Problem: Check the records and state AC50 for O=C(Oc1ccccc1)c1ccccc1O [PHENYL SALICYLATE]
Solution: 50.1 µM (inconclusive)

Problem: Specify measured AC50 for O=NN(CCO)CCO [N-NITROSODOETHANOLAMINE] .
Solution: 3.16 µM (inconclusive)

Problem: Hello, please tell me recorded AC50 for this one: `C=CCN1CCc2cccc3c2[C@H]1Cc1ccc(O)c(O)c1-3`
Solution: 11.2 µM (inconclusive)

* * *

- MEASUREMENT TARGET: Fatty acid synthase (Homo sapiens)
- Sequence (P49327 whole entry): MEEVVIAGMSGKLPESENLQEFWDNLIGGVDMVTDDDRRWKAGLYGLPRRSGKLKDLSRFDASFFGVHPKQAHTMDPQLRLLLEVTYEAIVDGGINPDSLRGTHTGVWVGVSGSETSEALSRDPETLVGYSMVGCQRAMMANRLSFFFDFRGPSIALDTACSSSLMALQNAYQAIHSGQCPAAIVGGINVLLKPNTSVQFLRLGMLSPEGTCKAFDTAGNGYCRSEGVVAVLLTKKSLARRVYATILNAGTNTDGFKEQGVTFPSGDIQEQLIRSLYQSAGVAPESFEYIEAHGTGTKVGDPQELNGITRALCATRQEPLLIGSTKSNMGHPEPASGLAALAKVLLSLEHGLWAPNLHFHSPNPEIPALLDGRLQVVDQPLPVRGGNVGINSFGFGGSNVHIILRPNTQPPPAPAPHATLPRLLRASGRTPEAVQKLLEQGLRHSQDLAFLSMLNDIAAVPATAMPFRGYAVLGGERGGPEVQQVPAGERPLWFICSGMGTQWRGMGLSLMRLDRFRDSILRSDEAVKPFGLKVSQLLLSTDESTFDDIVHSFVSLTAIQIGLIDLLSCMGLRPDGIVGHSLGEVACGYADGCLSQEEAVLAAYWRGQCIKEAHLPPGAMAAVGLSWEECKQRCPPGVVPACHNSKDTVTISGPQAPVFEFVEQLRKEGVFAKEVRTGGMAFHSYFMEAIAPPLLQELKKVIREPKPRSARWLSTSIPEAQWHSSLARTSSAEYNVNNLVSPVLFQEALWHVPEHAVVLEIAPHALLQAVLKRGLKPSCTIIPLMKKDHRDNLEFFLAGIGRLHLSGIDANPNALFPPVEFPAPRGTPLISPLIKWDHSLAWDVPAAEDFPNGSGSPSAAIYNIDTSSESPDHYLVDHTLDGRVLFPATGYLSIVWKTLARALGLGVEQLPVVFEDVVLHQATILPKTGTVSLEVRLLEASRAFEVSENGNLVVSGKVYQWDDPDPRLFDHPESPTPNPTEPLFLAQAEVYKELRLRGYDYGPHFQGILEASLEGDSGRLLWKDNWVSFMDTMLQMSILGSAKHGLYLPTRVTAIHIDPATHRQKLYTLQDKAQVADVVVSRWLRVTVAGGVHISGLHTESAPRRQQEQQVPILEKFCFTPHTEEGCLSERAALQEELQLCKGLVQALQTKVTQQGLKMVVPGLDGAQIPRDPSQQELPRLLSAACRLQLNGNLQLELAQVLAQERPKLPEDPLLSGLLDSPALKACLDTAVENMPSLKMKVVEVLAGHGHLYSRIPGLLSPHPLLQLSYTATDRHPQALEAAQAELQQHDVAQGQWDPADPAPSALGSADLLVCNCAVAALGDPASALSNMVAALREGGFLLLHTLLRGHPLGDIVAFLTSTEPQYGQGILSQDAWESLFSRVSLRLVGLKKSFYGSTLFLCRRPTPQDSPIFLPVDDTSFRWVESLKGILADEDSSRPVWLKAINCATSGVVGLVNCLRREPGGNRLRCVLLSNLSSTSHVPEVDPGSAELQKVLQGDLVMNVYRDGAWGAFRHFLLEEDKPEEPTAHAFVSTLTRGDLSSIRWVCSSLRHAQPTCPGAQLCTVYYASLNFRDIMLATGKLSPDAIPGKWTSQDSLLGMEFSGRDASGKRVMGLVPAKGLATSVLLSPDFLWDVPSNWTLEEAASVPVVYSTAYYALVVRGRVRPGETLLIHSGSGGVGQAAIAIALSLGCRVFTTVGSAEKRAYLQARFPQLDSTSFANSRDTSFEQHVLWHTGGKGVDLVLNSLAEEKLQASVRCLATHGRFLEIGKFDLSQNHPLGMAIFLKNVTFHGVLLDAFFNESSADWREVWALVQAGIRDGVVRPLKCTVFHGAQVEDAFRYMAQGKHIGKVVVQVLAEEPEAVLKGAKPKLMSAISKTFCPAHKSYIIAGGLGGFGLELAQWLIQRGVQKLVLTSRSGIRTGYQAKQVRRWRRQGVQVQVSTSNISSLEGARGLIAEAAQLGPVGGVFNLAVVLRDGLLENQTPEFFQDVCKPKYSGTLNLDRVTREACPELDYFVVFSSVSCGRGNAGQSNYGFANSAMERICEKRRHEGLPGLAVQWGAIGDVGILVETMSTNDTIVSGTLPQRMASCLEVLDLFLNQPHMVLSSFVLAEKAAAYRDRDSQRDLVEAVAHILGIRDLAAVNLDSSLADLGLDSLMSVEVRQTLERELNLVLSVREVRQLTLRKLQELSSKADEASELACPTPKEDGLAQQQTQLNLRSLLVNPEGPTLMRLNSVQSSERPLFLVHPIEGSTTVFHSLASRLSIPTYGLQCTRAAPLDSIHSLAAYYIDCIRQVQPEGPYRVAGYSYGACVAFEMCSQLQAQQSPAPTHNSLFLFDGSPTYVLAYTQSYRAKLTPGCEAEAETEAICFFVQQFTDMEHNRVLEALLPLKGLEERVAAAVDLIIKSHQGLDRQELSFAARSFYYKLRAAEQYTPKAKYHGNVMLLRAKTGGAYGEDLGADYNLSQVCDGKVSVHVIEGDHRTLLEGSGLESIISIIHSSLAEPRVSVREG
- ASSAY METHOD TEXT: inhibition of human FAS-TE enzyme activity – biochemical, kinetic fluorescence intensity, dose response (AID 624326);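 also: rate of fluorescence rise from hydrolysis of a fluorogenic O-methyl fluorescein ester substrate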
- Format: functional
Activity calls are given as the source filed them.
Each item that follows carries a reported IC50.

Solved entries (count: 2):
>>> observed_result("CCOc1ccc(C(=O)COC(=O)c2cc([N+](=O)[O-])ccc2N2CCOCC2)cc1")
"5.81 µM (active)"
>>> observed_result("O=C(N/N=C/c1ccc(Br)o1)/C(=C/c1ccc([N+](=O)[O-])cc1)NC(=O)c1ccccc1")
"10.8 µM (active)"

Problem: Answer with reported IC50 of `CC(C)(C)c1ccc(/C=N/NC(=S)NC2CCCCC2)cc1`
Solution: 15.4 µM (active)

Problem: Could you please provide reported IC50 for `Cc1ccc(NC(=O)c2cc([N+](=O)[O-])ccc2N2CCCC2)cc1` ? Thanks!
Solution: 5.53 µM (active)

Problem: In one line, give reported IC50 of the entry `C[C@H](CO)N1C[C@H](C)[C@@H](CN(C)Cc2ccc(Cl)c(Cl)c2)Oc2c(NS(=O)(=O)c3ccc(F)cc3)cccc2C1=O` .
Solution: 13.2 µM (active)

* * *

This listing pairs compounds with measured IC50.
- MEASUREMENT TARGET: Sentrin-specific protease 6 (Homo sapiens, UniProt Q9GZR1);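 also: Luminescence-based dose-response confirmatory assay of SENP6 inhibition, following up an ultra-high-throughput screen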
- Assay type: functional
Calls of active or inactive are those of the source.

Worked examples, 3 compounds total:
>>> observed_result("CN(C)S(=O)(=O)Oc1cccc(C(=O)Nc2ccc(Cl)c(Cl)c2)c1")
"13.6 µM (active)"
>>> observed_result("Cc1ccc2[nH]c(/C(C#N)=C/c3ccc(O)c(O)c3)nc2c1")
"27.9 µM (active)"
>>> observed_result("COc1c(O)ccc(/C=C(\\C#N)c2nc3ccccc3[nH]2)c1[N+](=O)[O-]")
"25.9 µM (active)"

Problem: Fill: IC50 (Sentrin-specific protease 6 (Homo sapiens, UniProt Q9GZR1)) for this compound `CCOC(=O)c1ccc(NC(=O)c2cc3ccccc3o2)cc1`
Solution: 7.74 µM (active)

* * *

- MEASUREMENT TARGET: UniProtKB Q9BQF6
- Sequence (Q9BQF6 whole entry): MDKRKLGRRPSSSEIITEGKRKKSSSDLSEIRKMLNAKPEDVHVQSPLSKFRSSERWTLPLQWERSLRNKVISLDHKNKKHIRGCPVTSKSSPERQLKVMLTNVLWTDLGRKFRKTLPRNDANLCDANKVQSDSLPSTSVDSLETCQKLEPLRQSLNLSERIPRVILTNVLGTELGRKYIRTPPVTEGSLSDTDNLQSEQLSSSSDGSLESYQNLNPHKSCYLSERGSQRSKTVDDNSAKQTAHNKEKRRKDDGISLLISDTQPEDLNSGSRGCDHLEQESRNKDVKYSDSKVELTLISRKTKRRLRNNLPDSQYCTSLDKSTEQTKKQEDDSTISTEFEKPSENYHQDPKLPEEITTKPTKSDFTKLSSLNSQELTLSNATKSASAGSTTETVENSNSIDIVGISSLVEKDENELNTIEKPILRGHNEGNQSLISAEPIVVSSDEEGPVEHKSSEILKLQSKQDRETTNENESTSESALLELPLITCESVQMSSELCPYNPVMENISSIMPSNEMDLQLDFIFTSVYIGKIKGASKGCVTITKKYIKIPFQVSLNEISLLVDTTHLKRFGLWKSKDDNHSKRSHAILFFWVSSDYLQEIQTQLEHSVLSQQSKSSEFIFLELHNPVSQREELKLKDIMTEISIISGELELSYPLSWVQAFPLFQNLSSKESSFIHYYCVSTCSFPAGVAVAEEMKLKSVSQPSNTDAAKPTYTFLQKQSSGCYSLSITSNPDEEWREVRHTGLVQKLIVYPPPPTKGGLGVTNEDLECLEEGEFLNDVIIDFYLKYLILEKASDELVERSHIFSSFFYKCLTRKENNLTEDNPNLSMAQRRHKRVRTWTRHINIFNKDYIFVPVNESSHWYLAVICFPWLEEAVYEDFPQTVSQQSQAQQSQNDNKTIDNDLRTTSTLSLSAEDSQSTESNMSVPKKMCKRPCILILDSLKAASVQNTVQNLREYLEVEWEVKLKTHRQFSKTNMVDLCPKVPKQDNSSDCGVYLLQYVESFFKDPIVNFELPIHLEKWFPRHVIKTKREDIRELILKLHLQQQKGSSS
- Format: functional
The source made the active and inactive calls.
Parameter: IC50. Scope: all listed entries.

Problem: Tell me IC50 of `COc1c(O)ccc(/C=C(\C#N)c2nc3ccccc3[nH]2)c1[N+](=O)[O-]` when tested on UniProtKB Q9BQF6.
Solution: 15.1 µM (active)

Problem: Report IC50 from UniProtKB Q9BQF6 testing of `CCOC(=O)c1ccc(NC(=O)c2cc3ccccc3o2)cc1`
Solution: 5.71 µM (active)

Problem: Give IC50; test system UniProtKB Q9BQF6; compound `Cc1ccc2[nH]c(/C(C#N)=C/c3ccc(O)c(O)c3)nc2c1`
Solution: 9.9 µM (active)

Problem: Provide IC50, recorded with UniProtKB Q9BQF6, of `CN(C)S(=O)(=O)Oc1cccc(C(=O)Nc2ccc(Cl)c(Cl)c2)c1`
Solution: 5.38 µM (active)

* * *

Items are presented alongside their recorded AC50.
- MEASUREMENT TARGET: Heat shock protein HSP 90-alpha (Homo sapiens, UniProt P07900)
- Format: functional, organism-based
Active and inactive are the calls of the source.

Worked cases, AC50 given:
>>> observed_result("CCCCCCCCCCOC(=O)C[n+]1c(COc2cccc(C)c2)n(C)c2ccccc21")
"32.5 µM (active)"
>>> observed_result("Cc1cc(C)c(S(=O)(=O)NCC23C=CC(O2)C2C(=O)N(c4ccccc4)C(=O)C23)c(C)c1 (stereo not given)")
"10.1 µM (active)"
>>> observed_result("COC(=O)C1CN(C#N)N(c2ccc(Cl)cc2)C12c1ccccc1-c1ccccc12 (stereo not given)")
"2.75 µM (active)"

Problem: Item `CC(C)/N=c1\scc(-c2cccs2)n1/N=C/c1ccc(O)c(O)c1O` : provide AC50
Solution: 3.46 µM (active)

Problem: Fill in reported AC50 for this entry: CC1CCCCC1NC(=O)/C(C#N)=C/c1ccccc1F (stereo not given)
Solution: 0.94 µM (active)
